# methodSummary: yeast display, Sf9 membrane polyspecificity reagent, FACS + sequencing; frameworks hold sequencing errors
readout: polyreactivity (PSR sort gate)

Observe how each entry below is paired with its result.
Ask: Any idea what its polyreactivity (PSR sort gate) is? The sequence is "QVQLVESGGGLVQAGGSLRLSCAASGRTFKFYAMGWYRQAPGKERELVATITSGGSTYYADSVKGRFTISRDNAKNTVYLQMNSLIPEDTAVSYCNAAKTYPDVYEYDYWGQGTQVTVSS"
Result: high polyreactivity

Ask: Give the measured polyreactivity (PSR sort gate) of "QVQLVESGGGLVQAGGSLRLSCAASGLTLKRYAMGWYRQAPGKERELDAAISKSGGSTYYADSVKGRFTSSRDNAKNTVYLQMNSLKPEDTPVYYCAADSYNLWDDYWGQGTQVTVSS" .
Result: low polyreactivity

Ask: I have this sequence here, "QVQLVESGGGLVQAGGSLRLSCAASGRIFRYNTMGWYRQAPGKERELVAAITYRGGSTYYADSVKGRFTISRDNAKNTVYLQMNSLKPEDTAVYYCAASPARYWYGGKEYDYWGQGTQVTVSS" , and I need its recorded polyreactivity (PSR sort gate).
Result: high polyreactivity

Ask: For the sequence shown here, "QDQHVESAGGLVQAAGSLRLSCAASGSTFWYYVMGWSRQAPGQVRELVAAISTRGDSTYYADSVKGRFTISRDNANNSVYLQMYSLKPEDTAVYYCAKSRQSSGRVRFDYWGQGTQVTVSS" , give the reported polyreactivity (PSR sort gate).
Result: low polyreactivity

New cases:
Ask: Which polyreactivity (PSR sort gate) is listed for "QVQHVESGGGLVQAGGSLRLSCAASASTFAWYPMGWYRQAPGKERELVAAITRDGSTYYADSVKGRFTISRDNAKNTVYLQMNSLKPEDTAVYYCAADLSYWRGGHSRNYWGQGTQVTVSS" ?
Result: low polyreactivity

----------
# methodSummary: yeast display, Sf9 membrane polyspecificity reagent, FACS + sequencing; frameworks hold sequencing errors
readout: polyreactivity (PSR sort gate)

Ask: Given "QVQLVESGGGLVQAGGSLRLSCAASGSTFVIYGMGLYRQEPGKESDIVADITWIGGSTYYADSVKGRFTISRDNAKNTVYLQMKSLKPEDTAVYYCAADAAYLYLYNWYDTEDYYWGQGTLVTVSS" , state its recorded polyreactivity (PSR sort gate).
Result: low polyreactivity

Ask: Could you tell me which polyreactivity (PSR sort gate) is on file for "QVQLVESGGGLVQAGGSLRLSCAASGFIFGSYTMGWYRQAPGKERELVAAISWSSGCSTYYADSVKGRFTISRDNAKNTVYLQMNSLKPEDTAVYYCAARHRGAGRNDFYYWGQGTQVTVSS" ?
Result: high polyreactivity

Ask: Name the reported polyreactivity (PSR sort gate) value associated with the sequence "QVQLVESGVGLVQAGGSLRLSCAASGNTFLPYAMGWYRQAPGKERELVAANSWSGGSTYYADSVKGRFTISRDNAKNTVYLQMNSLKPEETAVYYSARRRIGTPAYYYWGHGTQVTVSS"
Result: high polyreactivity

Ask: Consider the sequence "QVQLVESGGGLVQAGGSLRLSCAASGRIFSWYTMGWYRQAPGKERELVAAISWSGTSTYYADSVKGRFTISRDNAKNTVYLQMNSLKPEDTAVYYCARVLSPYYSTRYDHWGQGTQVTVSS" and give its measured polyreactivity (PSR sort gate).
Result: high polyreactivity

Further cases:
Ask: Data request, read-out polyreactivity (PSR sort gate), for "QVQLVESGGGLVQAGGSLRLSFAASGITFDSYAKGWYRQAPGKERELVATISRSGTTTYYADSVKGRFTISRDNAKNTVYLQMNSLKPEDTAVYYCNTLRAYWTYHFYGAVRDGYDYWGQGTQVTVSS"
Result: low polyreactivity

Origin of measurements: the nanobody polyreactivity screen of Harvey et al. (2022)
